Experiment: chemical genetic growth profiling, strain panel (AID 1159580);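 further: tested at 20 µM; growth read once vehicle control cultures reached saturation at 30 °C; 1 = growth at the plate median or of vehicle wells; lower values mean less growth of the strain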
Settings: S. cerevisiae deletion strains, growth OD, locus YMR223W, strain ubp8, stronger effect = lower value
In all, about 5,500 compounds went through this assay and about 2,000 (36%) were called active. Another 18% or so got no clear call; they are omitted. This is one part of the list. Where a SMILES comes first, the peptide text is derived from it.
property: normalized growth

molecule | observed
CC(=O)O[C@H]1C[C@@H](OC(C)=O)C(C)(C)C2C[C@@H](O)[C@]3(C)C(CC[C@@]4(C)[C@H](c5ccoc5)OC(=O)[C@H]5O[C@]543)[C@]21C (stereo partly drawn) | 0.978
Clc1ccc(CSC(Cn2ccnc2)c2ccc(Cl)cc2Cl)cc1 (stereo not drawn) | 0.0591
CCCCCCCCCCCC(=O)OCC(COP(=O)(O)OCC(O)COP(=O)(O)OCC(COC(=O)CCCCCCCCCCC)OC(=O)CCCCCCCCCCC)OC(=O)CCCCCCCCCCC (stereo not drawn) | 0.962
CCCCCCCCCCCCCC(=O)OC1C(C)C2(O)C(C=C(CO)CC3(O)C(=O)C(C)=CC32)C2C(C)(C)C12OC(C)=O (stereo not drawn) | 0.971
COC(=O)[C@@H]1OC(=O)C2OC23[C@@]1(C)CCC1[C@]2(C)C(C[C@@H](O)[C@]13C)C(C)(C)[C@H](OC(C)=O)C[C@@H]2OC(C)=O (stereo partly drawn) | 0.985
Clc1ccc(COC(Cn2ccnc2)c2ccc(Cl)cc2Cl)cc1 (stereo not drawn) | 0.0593
O=NN(CCCl)C(=O)NCCCl | 0.918
CC1CCC(NC(=O)N(CCCl)N=O)CC1 (stereo not drawn) | 0.974
CCCn1c(=O)c2[nH]c(C3CCCC3)nc2n(CCC)c1=O | 0.97
CN(C)CCC(c1ccccc1)c1ccccn1 (stereo not drawn) | 0.983
CNc1ccc(C(=O)CC(O)CCC(C)C2OC(=O)CC(O)CC(=O)CC(O)CC(O)CC(O)CC(O)CC3(O)CC(O)C(C(=O)OC)C(CC(OC4OC(C)C(O)C(N)C4O)/C=C/C=C/C=C/C=C/C=C/C=C/C=C/C2C)O3)cc1 (stereo not drawn) | 0.0693
CC(=O)N[C@@H](CC(=O)O)C(=O)N[C@@H](CCC(=O)O)C(=O)O (Ac-Asp-Glu-OH) | 0.983
Clc1ccc(COC(Cn2ccnc2)c2ccc(Cl)cc2Cl)c(Cl)c1 (stereo not drawn) | 0.0663
COP(=S)(OC)Oc1ccc([N+](=O)[O-])cc1 | 0.99
CC(=O)O[C@@H]1CC2C(C)(C)[C@H](O)CC[C@]2(C)C2CC[C@@]3(C)[C@H](c4ccoc4)OC(=O)[C@H]4O[C@]43[C@@]21C (stereo partly drawn) | 1
CC1(C)C(=O)[C@@H]2O[C@@H]2[C@@]2(C)C1C[C@@H](O)[C@]1(C)C2CC[C@@]2(C)[C@H](c3ccoc3)OC(=O)C3OC321 (stereo partly drawn) | 0.979
O=c1oc2ccccc2cc1O | 1
OC[C@H]1O[C@@H](n2cnc3c(NCc4ccco4)ncnc32)[C@H](O)[C@@H]1O | 1
